- testedSystem: Axl (UniProt P30530)
- Sequence (P30530 26-451 limits assumed): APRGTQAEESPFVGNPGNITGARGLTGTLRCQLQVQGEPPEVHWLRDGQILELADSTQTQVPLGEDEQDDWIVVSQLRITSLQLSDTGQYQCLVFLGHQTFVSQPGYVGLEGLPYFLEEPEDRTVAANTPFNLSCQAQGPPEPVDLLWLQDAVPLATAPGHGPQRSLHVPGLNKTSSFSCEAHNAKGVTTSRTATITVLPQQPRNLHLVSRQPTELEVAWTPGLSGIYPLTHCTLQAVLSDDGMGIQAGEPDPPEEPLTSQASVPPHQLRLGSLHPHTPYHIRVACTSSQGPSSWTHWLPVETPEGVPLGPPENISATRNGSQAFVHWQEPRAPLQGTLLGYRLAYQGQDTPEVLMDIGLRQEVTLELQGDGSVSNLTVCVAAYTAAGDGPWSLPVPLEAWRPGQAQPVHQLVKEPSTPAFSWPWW
- assaySummary: ELISA, 1:3 dilution
Just a reminder that ties go to condition not met: only Affinity ELISA CPE mutant ratio (1:3, pH 6.0/7.4) strictly below 2 counts as condition met.

INSERT INTO assay_data (binder, classassignment) VALUES
  ('LC-P095T (antibody, V domains shown) VH: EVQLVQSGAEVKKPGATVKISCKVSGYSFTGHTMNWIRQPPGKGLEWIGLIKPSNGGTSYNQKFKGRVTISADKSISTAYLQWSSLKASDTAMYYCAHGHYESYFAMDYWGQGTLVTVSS VL: DIQMTQSPSSLSASVGDRVTITCKASQDVSSAVAWYQQKPGQAPRLLIYWASTRHTGVPSRFSGSGSGTEFTLTISSLQPDDFATYYCQEHFSTTLTFGQGTKVEIK', 'condition not met'),
  ('LC-A051P (antibody, V domains shown) VH: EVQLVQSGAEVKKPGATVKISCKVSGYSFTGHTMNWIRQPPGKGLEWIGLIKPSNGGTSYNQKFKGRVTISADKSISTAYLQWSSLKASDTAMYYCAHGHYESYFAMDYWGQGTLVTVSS VL: DIQMTQSPSSLSASVGDRVTITCKASQDVSSAVAWYQQKPGQAPRLLIYWPSTRHTGVPSRFSGSGSGTEFTLTISSLQPDDFATYYCQEHFSTPLTFGQGTKVEIK', 'condition met'),
  ('LC-H091Q (antibody, V domains shown) VH: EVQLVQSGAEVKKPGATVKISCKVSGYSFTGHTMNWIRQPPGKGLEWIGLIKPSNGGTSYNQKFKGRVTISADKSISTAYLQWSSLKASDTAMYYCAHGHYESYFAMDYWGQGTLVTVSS VL: DIQMTQSPSSLSASVGDRVTITCKASQDVSSAVAWYQQKPGQAPRLLIYWASTRHTGVPSRFSGSGSGTEFTLTISSLQPDDFATYYCQEQFSTPLTFGQGTKVEIK', 'condition met'),
  ('HC-H100P (antibody, V domains shown) VH: EVQLVQSGAEVKKPGATVKISCKVSGYSFTGHTMNWIRQPPGKGLEWIGLIKPSNGGTSYNQKFKGRVTISADKSISTAYLQWSSLKASDTAMYYCAHGPYESYFAMDYWGQGTLVTVSS VL: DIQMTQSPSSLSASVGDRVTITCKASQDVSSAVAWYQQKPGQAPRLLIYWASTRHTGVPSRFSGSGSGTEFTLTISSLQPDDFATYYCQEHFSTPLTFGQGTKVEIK', 'condition not met');

Attention now shifts to the item below.
Input: A record lists LC-P095C (antibody, V domains shown) VH: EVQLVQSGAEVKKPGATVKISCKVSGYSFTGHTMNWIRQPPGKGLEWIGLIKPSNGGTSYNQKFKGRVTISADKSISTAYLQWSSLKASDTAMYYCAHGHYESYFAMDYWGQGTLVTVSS VL: DIQMTQSPSSLSASVGDRVTITCKASQDVSSAVAWYQQKPGQAPRLLIYWASTRHTGVPSRFSGSGSGTEFTLTISSLQPDDFATYYCQEHFSTCLTFGQGTKVEIK . Is its Affinity ELISA CPE mutant ratio (1:3, pH 6.0/7.4) below 2?
Output: condition not met
